Tested on: P. aeruginosa PAO1
Procedure details: MIC of antibiotics with or without PAG/AOAA
Type: cell-based
Condition notes: in the presence of 0.5 mM PAG + 0.05 mM AOAA
Description: Minimum inhibitory concentration (MIC) determination was conducted as described in Example 7, above. […]
Listing: Minimum inhibitory concentration of selected compounds
State just the number; it will be interpreted in µg/mL.

1. CCN1CCN(C(=O)N[C@@H](C(=O)N[C@@H]2C(=O)N3[C@@H]2SC(C)(C)[C@@H]3C(=O)O)c2ccccc2)C(=O)C1=O 4

Then there is this compound:
-- ask Tell me its Minimum inhibitory concentration given C[C@@H](O)[C@H]1C(=O)N2C(C(=O)O)=C(S[C@@H]3CN[C@H](C(=O)N(C)C)C3)[C@H](C)[C@H]12 as the entry.
-- reply 0.5
